Source of measurements: paper PMC11440508

Molecular target: T1, human neurotensin receptor type 1 (hNTS1R), stably expressed in CHO cells (human, UniProt P30989 1-418)
T1 construct: human neurotensin receptor type 1 (hNTS1R), wild type, stably expressed in Chinese hamster ovary cells; also called CHO-hNTS1R cells; CHO-NTS1R cells; source: CHO cells stably expressing hNTS1R; intact adherent cells, intact suspended cells and membrane preparations
T1 sequence (P30989 whole entry): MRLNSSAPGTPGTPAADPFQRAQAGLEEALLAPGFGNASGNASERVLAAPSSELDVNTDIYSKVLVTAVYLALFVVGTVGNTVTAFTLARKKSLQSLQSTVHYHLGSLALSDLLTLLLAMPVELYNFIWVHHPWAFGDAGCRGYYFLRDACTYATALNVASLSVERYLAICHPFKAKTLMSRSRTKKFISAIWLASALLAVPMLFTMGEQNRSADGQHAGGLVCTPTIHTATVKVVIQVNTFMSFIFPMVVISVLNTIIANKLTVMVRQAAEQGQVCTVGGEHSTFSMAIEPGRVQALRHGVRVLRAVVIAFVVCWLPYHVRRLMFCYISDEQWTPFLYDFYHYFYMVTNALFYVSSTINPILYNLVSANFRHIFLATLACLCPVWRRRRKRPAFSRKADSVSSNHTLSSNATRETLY
Assay: radioligand binding; association (2.5 nM) and dissociation (12 nM preincubation, 30 min) at membranes of CHO-hNTS1R cells, DPBS1 with 50 μM GppNHp and 100 μg/mL saponin, 23 °C; kon and Kd(kin) calculated
Conditions: one partner purified
metric.name: Kd (nM)
Lab book: enter the figure in nM, no units written.

[ask] Which Kd reading was recorded for the binder XPRRPYIL (as 13, with a [^3H]propionyl instead of the propionyl group at the N^ω-carbamoylated Arg8; N-terminal 5-TAMRA through a triazolylpropanoyl group; position 6 (X) = pipGly) [[^3H]13, tritiated analogue of the 5-TAMRA-labeled peptide 13] ?
[reply] 2.7
